biological target: PXR (NR1I2); readout CYP3A4/5 mRNA (Homo sapiens, UniProt O75469); assay: Induction of PXR in human primary hepatocytes assessed as upregulation of CYP3A4/5 mRNA expression at 3 uM after 48 hrs relative to rifampicin; assay type: ADME, cell-based
Sequence (O75469 whole entry): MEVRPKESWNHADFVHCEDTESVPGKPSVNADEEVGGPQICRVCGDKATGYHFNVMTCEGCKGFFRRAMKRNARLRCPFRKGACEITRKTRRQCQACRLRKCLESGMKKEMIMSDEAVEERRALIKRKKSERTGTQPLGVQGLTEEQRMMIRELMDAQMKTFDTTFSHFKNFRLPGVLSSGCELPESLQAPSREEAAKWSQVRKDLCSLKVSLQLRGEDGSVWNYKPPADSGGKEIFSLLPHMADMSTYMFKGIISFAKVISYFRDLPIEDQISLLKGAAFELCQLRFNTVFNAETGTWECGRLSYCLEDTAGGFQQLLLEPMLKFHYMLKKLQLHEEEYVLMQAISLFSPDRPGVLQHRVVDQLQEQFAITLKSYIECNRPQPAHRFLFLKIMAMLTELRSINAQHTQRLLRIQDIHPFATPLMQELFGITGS
property: Emax at 48 h, 3 µM (%)

> print(dat)
                             moleculesmiles            property  uom  testresult
1  CCc1cn2c(nc1=O)O[C@H](COc1ccc(-c3cccc(C)c3C)cc1)C2  Emax at 48 h, 3 µM    %          10
2  CC(C)(C)c1ccc(OC[C@@H]2Cn3ccc(=O)nc3O2)cc1  Emax at 48 h, 3 µM    %         1.1
3  Cc1cccc(-c2ccc(OC[C@@H]3Cn4cc(C)c(=O)nc4O3)cc2)c1C  Emax at 48 h, 3 µM    %          32
4  Cc1cccc(-c2ccc(OC[C@@H]3Cn4ccc(=O)nc4O3)cc2)c1C  Emax at 48 h, 3 µM    %          38
5  O=c1ccn2c(n1)O[C@H](COc1ccc(-c3cccc(C(F)(F)F)c3)cc1)C2  Emax at 48 h, 3 µM    %          22
6  Cc1cccc(-c2ccc(OC[C@@H]3Cn4c(C)cc(=O)nc4O3)cc2)c1C  Emax at 48 h, 3 µM    %          37
7  CC1(C)CCc2cc(OC[C@@H]3Cn4ccc(=O)nc4O3)ccc21  Emax at 48 h, 3 µM    %        -2.7
